- Test system: HEK293
- assay.remarks: Cytotoxicity against human HEK293 cells after 72 hrs by MTT assay
- Assay type: cell-based
- stated.conditions: HEK293, 72 h
observation.type: IC50 (µM)

>>> assay_value("O=C(CSC(=S)N[C@H]1CCOC1=O)Nc1ccc(C(=O)/C=C/c2ccccc2Cl)cc1")
21.1

---

List of pIC50 values.
- assay.remarks: Cytotoxicity against human EC9706 cells after 72 hrs by MTT assay
- Format: functional, cell-based
- stated.conditions: EC9706, 72 h
pIC50: −log10 of the molar value.
observation.type: pIC50

>>> assay_value("COc1cccc(/C=C/C(=O)c2ccc(NC(=O)CCl)cc2)c1")
5.22
>>> assay_value("O=C(CCl)Nc1ccc(C(=O)/C=C/c2ccc(Br)cc2)cc1")
5.00
>>> assay_value("O=C(CCl)Nc1ccc(C(=O)/C=C/c2ccc(F)cc2)cc1")
5.07
>>> assay_value("O=C(CSC(=S)N[C@H]1CCOC1=O)Nc1cccc(Cl)c1")
3.97
>>> assay_value("CCCCc1ccc(NC(=O)CSC(=S)N[C@H]2CCOC2=O)cc1")
4.35
>>> assay_value("O=C(CSC(=S)N[C@H]1CCOC1=O)Nc1ccc(F)cc1")
4.17
>>> assay_value("O=C(CCl)Nc1ccc(C(=O)/C=C/c2ccccc2Cl)cc1")
5.16
